Examples of compounds with documented TGI follow.
Test system: OVCAR-5 ovarian
Assay: NCI tumour cell line growth inhibition, 48 h

[[record]]
compound = "CCOC(=O)CCC(NC(=O)C(CCC(=O)OCC)NC(=O)C(Cc1ccc([N+](=O)[O-])cc1)NC(C)=O)C(=O)NNC(=O)OC(C)(C)C (stereo unspecified)"
observed_result = "> 100 µM"

[[record]]
compound = "CCCCCCCCCCCCCCCCCCNc1ccn(C2OC(COP(=O)(O)OCC(COP(=O)(O)OCC3OC(n4cc(C)c(=O)[nH]c4=O)CC3N=[N+]=[N-])OCCCCCCCCCCCCCCCCCC)C(O)C2O)c(=O)n1 (stereo unspecified)"
observed_result = "> 100 µM"

[[record]]
compound = "CCCCCCCCCCCCCCCCCc1cc(Cl)nc(Cl)n1"
observed_result = "> 100 µM"

[[record]]
compound = "CC(=O)OC(=C(C#N)C#N)c1nccnc1C(=O)O"
observed_result = "> 100 µM"

[[record]]
compound = "CC(=O)CC(=O)ON(C)C(C)=O"
observed_result = "> 100 µM"


Shifting focus to the compound that follows.
Could you share which TGI value was measured for `COc1ccc(-c2cc(=O)c3c(OC)c(O)c(OC)cc3o2)cc1` ?
> 100 µM

All figures here come from PubChem BioAssay (NCI).
